- experimental-system: Kv1.5 (Homo sapiens)
- Construct: expressed in transfected cells
- Sequence (P22460 whole entry): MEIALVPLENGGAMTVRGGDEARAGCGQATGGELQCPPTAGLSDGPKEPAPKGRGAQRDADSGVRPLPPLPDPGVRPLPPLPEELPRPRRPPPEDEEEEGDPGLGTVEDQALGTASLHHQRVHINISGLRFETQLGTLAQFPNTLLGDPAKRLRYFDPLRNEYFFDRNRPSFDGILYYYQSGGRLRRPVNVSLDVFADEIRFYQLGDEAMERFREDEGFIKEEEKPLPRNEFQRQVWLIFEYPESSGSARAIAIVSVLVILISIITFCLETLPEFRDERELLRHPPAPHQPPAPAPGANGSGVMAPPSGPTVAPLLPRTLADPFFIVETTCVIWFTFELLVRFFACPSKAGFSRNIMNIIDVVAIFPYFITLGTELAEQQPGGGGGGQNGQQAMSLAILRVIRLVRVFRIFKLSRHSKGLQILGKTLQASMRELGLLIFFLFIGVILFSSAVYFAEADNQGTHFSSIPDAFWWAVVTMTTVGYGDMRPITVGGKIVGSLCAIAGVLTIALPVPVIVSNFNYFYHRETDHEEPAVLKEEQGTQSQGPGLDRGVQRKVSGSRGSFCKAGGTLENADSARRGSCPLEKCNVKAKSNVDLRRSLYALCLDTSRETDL
- assay-name: Kv1.5 channel block in stably expressing HEK 293 cells
- Format: cell-based
assay-endpoint: IC50

Query string: Supply measured IC50 of CC1OC(OCC2OC(Oc3c(-c4ccc(O)c(O)c4)oc4cc(O)cc(O)c4c3=O)C(O)C(O)C2O)C(O)C(O)C1O (stereo not shown) [A-11] in your reply.
Result string: > 100 µM

====

- experimental-system: Kv1.5 (Homo sapiens)
- Construct: expressed in transfected cells
- assay-name: Kv1.5 channel block in stably expressing HEK 293 cells
- Format: cell-based
- experimental-context: comparative study, Table 3
assay-endpoint: effect on Kv1.5 compared with acacetin, in words

COc1ccc(-c2cc(=O)c3ccccc3o2)cc1 : less effect
COc1ccc(-c2cc(=O)c3c(O)cc(OC(=O)c4ccccc4)cc3o2)cc1 : less effect
CC1OC(OCC2OC(Oc3c(-c4ccc(O)c(O)c4)oc4cc(O)cc(O)c4c3=O)C(O)C(O)C2O)C(O)C(O)C1O (centres unmarked) : no effects
Oc1cc(O)c2c(c1)O[C@H](c1ccc(O)c(O)c1)[C@@H](O)C2 : no effects

Let's switch to this compound now.
Query string: Give the observed effect on Kv1.5 compared with acacetin, in words of `O=c1cc(-c2ccccc2)oc2cc(O)c(O)c(O)c12` for Kv1.5 (Homo sapiens).
Result string: no effects

The measurements presented in this section are drawn from patent US7816400B2.
